Reference source for all entries: patent US20150056222A1

Measured T½, listed per entry.
- target.of.assay: T1, hPRLR.mmh (soluble monomeric human PRLR) (human)
- T1 construct: soluble monomeric construct
- T1 chain: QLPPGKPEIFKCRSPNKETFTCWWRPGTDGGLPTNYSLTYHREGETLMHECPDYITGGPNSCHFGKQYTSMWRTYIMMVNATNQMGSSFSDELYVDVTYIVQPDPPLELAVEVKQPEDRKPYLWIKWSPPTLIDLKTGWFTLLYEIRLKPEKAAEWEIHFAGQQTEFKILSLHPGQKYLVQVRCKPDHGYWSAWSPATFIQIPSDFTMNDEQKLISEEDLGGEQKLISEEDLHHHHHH
- assay.info: SPR, 37C, mAb capture
assay.metric: T½ (min)

binder	endpoint.result
H1H6976N (antibody, human IgG1, V domains shown, also called H2M6976N) VH: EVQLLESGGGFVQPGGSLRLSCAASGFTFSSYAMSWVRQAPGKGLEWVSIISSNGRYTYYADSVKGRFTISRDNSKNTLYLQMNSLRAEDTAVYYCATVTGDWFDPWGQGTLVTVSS VL: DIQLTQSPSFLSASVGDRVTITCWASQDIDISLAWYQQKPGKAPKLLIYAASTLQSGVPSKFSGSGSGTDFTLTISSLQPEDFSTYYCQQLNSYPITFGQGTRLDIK	3.7
H1H6959N2 (antibody, human IgG1, V domains shown, also called H2M6959N2) VH: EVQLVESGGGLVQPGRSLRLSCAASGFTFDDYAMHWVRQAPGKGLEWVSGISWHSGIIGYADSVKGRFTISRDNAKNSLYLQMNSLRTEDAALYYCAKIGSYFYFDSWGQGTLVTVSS VL: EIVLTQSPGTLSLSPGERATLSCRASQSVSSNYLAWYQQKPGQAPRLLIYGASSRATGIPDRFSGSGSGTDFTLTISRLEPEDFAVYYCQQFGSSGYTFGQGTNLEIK	0.4
